Tested on: 817829-284-R-J1-PDC complex spheroids, viability
Experiment: Anticancer human tumor 817829-284-R-J1-PDC patient-derived colon adenocarcinoma cell line growth inhibition [GQUAD]; active means viability on the fitted dose curve at most 10% of control; inactive means the rest
Condition description: second compound 0.1 µM; first compound 10 µM
Source text: DNA G-quadruplex Stabilizer Agents in Combinations in Complex Spheroids A high-throughput screen of multi-cell type tumor spheroids was designed to identify active combinations of DNA G-quadruplex stabilizer agents and targeted small molecules. […] Compounds. […] If the clinical Cmax for an agent had not been determined, the highest concentration tested was 10 microM. […]
I would appreciate it if you answered using one of these outcomes: class 1 (active), class 0 (inactive)

Record lookup: outcome of this test for CC1COCCN1c1cc(C2(S(C)(=N)=O)CC2)nc(-c2ccnc3[nH]ccc23)n1 (stereo not given) + Cc1cnc(CNC(=O)c2c(=O)c3ccc(N4CCCN(C)CC4)nc3n3c2sc2ccccc23)cn1 ?
class 1

Given COc1ncnc(C2CC2)c1-c1ncc2cnn(Cc3ccc(-c4nc(C(F)(F)F)cn4C(C)C)cc3)c2n1 + CN(C)c1ccc(Nc2c3ccc(NC(=O)CCN4CCCC4)cc3nc3cc(NC(=O)CCN4CCCC4)ccc23)cc1 , state the outcome it received in this test.
class 0

Record lookup: outcome of this test for CC(=O)O[C@H]1C(=O)[C@@]2(C)[C@H]([C@H](OC(=O)c3ccccc3)[C@]3(O)C[C@H](OC(=O)[C@H](O)[C@@H](NC(=O)c4ccccc4)c4ccccc4)C(C)=C1C3(C)C)[C@]1(OC(C)=O)CO[C@@H]1C[C@@H]2O + Cc1[nH]c2ccc(F)cc2c1-c1nc2c3cccnc3c3ncccc3c2[nH]1 ?
class 1

Identify the outcome logged in this assay for the compound shown: COc1ncnc(C2CC2)c1-c1ncc2cnn(Cc3ccc(-c4nc(C(F)(F)F)cn4C(C)C)cc3)c2n1 + Cc1cnc(CNC(=O)c2c(=O)c3ccc(N4CCCN(C)CC4)nc3n3c2sc2ccccc23)cn1
class 0

Please indicate how the test categorized CC(C)n1c(=O)n(C)c2cnc3cc(F)c(-c4ccc(OCCCN5CCCCC5)nc4)cc3c21 + Cc1cnc(CNC(=O)c2c(=O)c3ccc(N4CCCN(C)CC4)nc3n3c2sc2ccccc23)cn1 .
class 0

----------
Test system: 817829-284-R-J1-PDC complex spheroids, viability
Experiment: Anticancer human tumor 817829-284-R-J1-PDC cell line growth inhibition [GQUAD];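 further: spheroids exposed to agents for 7 days before readout; percent viability relative to DMSO vehicle control taken as 100%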
Condition description: second compound 3.16 µM; first compound 3.16 µM; stronger effect = lower value
Lab note - cut at 50% for viability, T/C: Y if strictly below, N if not.

Does the reported viability, T/C of the following compound sit strictly below 50%? CCCS(=O)(=O)Nc1ccc(F)c(C(=O)c2c[nH]c3ncc(-c4ccc(Cl)cc4)cc23)c1F + CN(C)c1ccc(Nc2c3ccc(NC(=O)CCN4CCCC4)cc3nc3cc(NC(=O)CCN4CCCC4)ccc23)cc1
N

Identify whether the compound C=CC(=O)N1CCN(c2nc(=O)n(-c3c(C)ccnc3C(C)C)c3nc(-c4c(O)cccc4F)c(F)cc23)C(C)C1 (stereo unspecified) + Cc1[nH]c2ccc(F)cc2c1-c1nc2c3cccnc3c3ncccc3c2[nH]1 records viability, T/C below 50%.
N

Please determine if O=c1[nH]cc(F)c(=O)[nH]1 + Cc1[nH]c2ccc(F)cc2c1-c1nc2c3cccnc3c3ncccc3c2[nH]1 is below 50% in terms of viability, T/C.
Y

Given the entry CC1COCCN1c1cc(C2(S(C)(=N)=O)CC2)nc(-c2ccnc3[nH]ccc23)n1 (stereo unspecified) + Cc1cnc(CNC(=O)c2c(=O)c3ccc(N4CCCN(C)CC4)nc3n3c2sc2ccccc23)cn1 , would its reported viability, T/C be below 50%?
Y

viability, T/C strictly < 50% for this compound? COc1cccc2c1C(=O)c1c(O)c3c(c(O)c1C2=O)CC(O)(C(=O)CO)CC3OC1CC(N)C(O)C(C)O1 (stereo unspecified) + Cc1[nH]c2ccc(F)cc2c1-c1nc2c3cccnc3c3ncccc3c2[nH]1
Y

viability, T/C under 50%? Item: O=C(c1cc(Cc2n[nH]c(=O)c3ccccc23)ccc1F)N1CCN(C(=O)C2CC2)CC1 + CN(C)c1ccc(Nc2c3ccc(NC(=O)CCN4CCCC4)cc3nc3cc(NC(=O)CCN4CCCC4)ccc23)cc1
N

Determine if CC(C)n1c(=O)n(C)c2cnc3cc(F)c(-c4ccc(OCCCN5CCCCC5)nc4)cc3c21 + CN(C)c1ccc(Nc2c3ccc(NC(=O)CCN4CCCC4)cc3nc3cc(NC(=O)CCN4CCCC4)ccc23)cc1 shows viability, T/C strictly lower than 50%.
N

Confirm or reject: viability, T/C of C=CCn1c(=O)c2cnc(Nc3ccc(N4CCN(C)CC4)cc3)nc2n1-c1cccc(C(C)(C)O)n1 + Cc1cnc(CNC(=O)c2c(=O)c3ccc(N4CCCN(C)CC4)nc3n3c2sc2ccccc23)cn1 lies strictly below 50%
Y

Here's an entry: COc1ccc([C@@H](O)c2cc(-c3ncnc4cc(N5CCOCC5)ccc34)c(F)cc2Cl)nn1 + Cc1[nH]c2ccc(F)cc2c1-c1nc2c3cccnc3c3ncccc3c2[nH]1 . Is its viability, T/C below 50%?
Y

Answer whether the compound CC1COCCN1c1cc(-c2ccnn2C)c2ccnc(-c3ccn[nH]3)c2n1 (stereo unspecified) + Cc1cnc(CNC(=O)c2c(=O)c3ccc(N4CCCN(C)CC4)nc3n3c2sc2ccccc23)cn1 has viability, T/C strictly less than 50%
Y

Strictly below 50% in viability, T/C? Cc1cccc(N(C)C(=O)C2C(O)CCN2c2nc(C)cc(C(F)(F)F)c2C#N)c1 (stereo unspecified) + Cc1cnc(CNC(=O)c2c(=O)c3ccc(N4CCCN(C)CC4)nc3n3c2sc2ccccc23)cn1
Y

Origin of measurements: PubChem BioAssay AID2060503
